Quick list: C/P per entry.
- Organism: Cavia porcellus
- METHOD: Relative affinity for type B (cortex) over type A (pancreatic) cholecystokinin receptors
*1 amine or outer side, *2 acyl side, *3 side chain or, on linkers, in order; H or OH if unused. Where a SMILES comes first, the peptide text is derived from it. Side-chain parts run from the residue outwards. The star is where a group is joined. NH(3-MeOPh) = COc1cccc(N*)c1; X1 = CC(=O)c1ccc(N*)cc1; 2Abz = Nc1ccccc1C(=O)O; Boc = CC(C)(C)OC(=O)*; CO = O=C([*:1])[*:2]

MOLECULE	C/P
COc1cccc(NC(=O)NCCCC[C@H](NC(=O)[C@H](Cc2c[nH]c3ccccc23)NC(=O)OC(C)(C)C)C(=O)N[C@@H](CC(=O)O)C(=O)N[C@@H](Cc2ccccc2)C(N)=O)c1 (Boc-WK([CO-NH(3-MeOPh)])DF-NH2)	150
CC(=O)c1ccc(NC(=O)NCCCC[C@H](NC(=O)[C@H](Cc2c[nH]c3ccccc23)NC(=O)OC(C)(C)C)C(=O)N[C@@H](CC(=O)O)C(=O)N[C@@H](Cc2ccccc2)C(N)=O)cc1 (Boc-WK([CO-X1])DF-NH2)	0.26
COC(=O)c1ccccc1NC(=O)NCCCC[C@H](NC(=O)[C@H](Cc1c[nH]c2ccccc12)NC(=O)OC(C)(C)C)C(=O)N[C@@H](CC(=O)O)C(=O)N[C@@H](Cc1ccccc1)C(N)=O (Boc-WK([CO-2Abz-OMe])DF-NH2)	91

* * *

Quick list: C/P per entry.
- Species: Cavia porcellus
- METHOD: Relative affinity for type B (cortex) over type A (pancreatic) cholecystokinin receptors
*1 amine or outer side, *2 acyl side, *3 side chain or, on linkers, in order; H or OH if unused. Where a SMILES comes first, the peptide text is derived from it. Side-chain parts run from the residue outwards. The star is where a group is joined. NH(4-MeO-phenyl) = COc1ccc(N*)cc1; pNA = O=[N+]([O-])c1ccc(N*)cc1; X2 = O=[N+]([O-])c1cccc(N*)c1; 3Abz = Nc1cccc(C(=O)O)c1; Boc = CC(C)(C)OC(=O)*; CO = O=C([*:1])[*:2]

COMPOUND	C/P
CC(C)(C)OC(=O)N[C@@H](Cc1c[nH]c2ccccc12)C(=O)N[C@@H](CCCCNC(=O)Nc1cccc([N+](=O)[O-])c1)C(=O)N[C@@H](CC(=O)O)C(=O)N[C@@H](Cc1ccccc1)C(N)=O (Boc-WK([CO-X2])DF-NH2)	210
COc1ccc(NC(=O)NCCCC[C@H](NC(=O)[C@H](Cc2c[nH]c3ccccc23)NC(=O)OC(C)(C)C)C(=O)N[C@@H](CC(=O)O)C(=O)N[C@@H](Cc2ccccc2)C(N)=O)cc1 (Boc-WK([CO-NH(4-MeO-phenyl)])DF-NH2)	50
COC(=O)c1cccc(NC(=O)NCCCC[C@H](NC(=O)[C@H](Cc2c[nH]c3ccccc23)NC(=O)OC(C)(C)C)C(=O)N[C@@H](CC(=O)O)C(=O)N[C@@H](Cc2ccccc2)C(N)=O)c1 (Boc-WK([CO-3Abz-OMe])DF-NH2)	67
CC(C)(C)OC(=O)N[C@@H](Cc1c[nH]c2ccccc12)C(=O)N[C@@H](CCCCNC(=O)Nc1ccc([N+](=O)[O-])cc1)C(=O)N[C@@H](CC(=O)O)C(=O)N[C@@H](Cc1ccccc1)C(N)=O (Boc-WK([CO-pNA])DF-NH2)	0.75

* * *

Sequence of the target: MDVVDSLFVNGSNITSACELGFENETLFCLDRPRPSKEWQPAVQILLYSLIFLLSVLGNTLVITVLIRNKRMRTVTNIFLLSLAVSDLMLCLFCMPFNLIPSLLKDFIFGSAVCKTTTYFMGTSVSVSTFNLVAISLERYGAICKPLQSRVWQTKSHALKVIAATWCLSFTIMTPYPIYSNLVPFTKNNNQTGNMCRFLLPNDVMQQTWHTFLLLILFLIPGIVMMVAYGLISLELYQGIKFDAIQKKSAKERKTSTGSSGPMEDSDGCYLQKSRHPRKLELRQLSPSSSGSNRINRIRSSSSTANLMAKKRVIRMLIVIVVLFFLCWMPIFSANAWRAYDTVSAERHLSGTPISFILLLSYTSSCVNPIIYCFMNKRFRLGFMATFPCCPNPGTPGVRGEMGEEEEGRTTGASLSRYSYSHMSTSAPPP
pIC50: −log10 of the molar value. *1 amine or outer side, *2 acyl side, *3 side chain or, on linkers, in order; H or OH if unused. Where a SMILES comes first, the peptide text is derived from it. Side-chain parts run from the residue outwards. The star is where a group is joined. pNA = O=[N+]([O-])c1ccc(N*)cc1; X2 = O=[N+]([O-])c1cccc(N*)c1; 3Abz = Nc1cccc(C(=O)O)c1; 4Abz = Nc1ccc(C(=O)O)cc1; X1 = CC(=O)c1ccc(N*)cc1; Boc = CC(C)(C)OC(=O)*; CO = O=C([*:1])[*:2]
MEASURED_METRIC: pIC50

MOLECULE	MEASURED_METRIC	EXPERIMENTAL_VALUE
CC(=O)c1ccc(NC(=O)NCCCC[C@H](NC(=O)[C@H](Cc2c[nH]c3ccccc23)NC(=O)OC(C)(C)C)C(=O)N[C@@H](CC(=O)O)C(=O)N[C@@H](Cc2ccccc2)C(N)=O)cc1 (Boc-WK([CO-X1])DF-NH2)	pIC50	7.34
CC(C)(C)OC(=O)N[C@@H](Cc1c[nH]c2ccccc12)C(=O)N[C@@H](CCCCNC(=O)Nc1cccc([N+](=O)[O-])c1)C(=O)N[C@@H](CC(=O)O)C(=O)N[C@@H](Cc1ccccc1)C(N)=O (Boc-WK([CO-X2])DF-NH2)	pIC50	8.24
COC(=O)c1cccc(NC(=O)NCCCC[C@H](NC(=O)[C@H](Cc2c[nH]c3ccccc23)NC(=O)OC(C)(C)C)C(=O)N[C@@H](CC(=O)O)C(=O)N[C@@H](Cc2ccccc2)C(N)=O)c1 (Boc-WK([CO-3Abz-OMe])DF-NH2)	pIC50	7.82
CC(C)(C)OC(=O)N[C@@H](Cc1c[nH]c2ccccc12)C(=O)N[C@@H](CCCCNC(=O)Nc1ccc([N+](=O)[O-])cc1)C(=O)N[C@@H](CC(=O)O)C(=O)N[C@@H](Cc1ccccc1)C(N)=O (Boc-WK([CO-pNA])DF-NH2)	pIC50	7.39
COC(=O)c1ccc(NC(=O)NCCCC[C@H](NC(=O)[C@H](Cc2c[nH]c3ccccc23)NC(=O)OC(C)(C)C)C(=O)N[C@@H](CC(=O)O)C(=O)N[C@@H](Cc2ccccc2)C(N)=O)cc1 (Boc-WK([CO-4Abz-OMe])DF-NH2)	pIC50	7.15
